Target: HLA-B*57:01
Test: IEDB peptide-MHC binding, purified MHC/direct/fluorescence; filed as Kd, often an IC50 or EC50 that approximates it; bounds were set here for any values at or beyond the usual limits of such assays
Settings: source organism: Vibrio parahaemolyticus
Reported Endpoint: pKd
By convention, pKd is the negative base-10 log of a molar concentration.

Query block: # return recorded pKd for input RSTLANGWY
Result block: 6.57

---

Target: HLA-B*08:01
Test: IEDB peptide-MHC binding, purified MHC/direct/fluorescence; filed as Kd, often an IC50 or EC50 that approximates it; bounds were set here for any values at or beyond the usual limits of such assays
Conditions: source organism: Variola virus
Reported Endpoint: Kd

Query block: Read the entry GLYRLNFRR and write its reported Kd.
Result block: ≥ 20 µM
